Target: 5-hydroxytryptamine receptor 1A (Homo sapiens, UniProt P08908)
Sequence (P08908 whole entry): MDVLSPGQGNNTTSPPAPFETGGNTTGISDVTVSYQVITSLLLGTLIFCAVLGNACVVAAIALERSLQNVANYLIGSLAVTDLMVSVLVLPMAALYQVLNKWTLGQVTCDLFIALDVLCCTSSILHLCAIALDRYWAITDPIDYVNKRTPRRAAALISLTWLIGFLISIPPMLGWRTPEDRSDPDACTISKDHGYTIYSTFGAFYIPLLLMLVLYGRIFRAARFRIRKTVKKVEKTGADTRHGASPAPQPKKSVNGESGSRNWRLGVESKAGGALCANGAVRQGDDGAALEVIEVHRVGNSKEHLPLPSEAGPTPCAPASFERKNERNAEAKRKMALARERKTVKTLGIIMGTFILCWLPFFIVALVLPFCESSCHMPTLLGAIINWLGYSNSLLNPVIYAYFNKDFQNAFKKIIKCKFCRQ
Test: Safety47 Scan (DiscoverX - Eurofins)
pEC50: −log10 of the molar value.
test_readout: pEC50

Give me measured pEC50, please, for this molecule: "CC(C)(O)c1ccc(N2Cc3c(ccnc3-c3ccc(F)cc3OCC(F)(F)F)C2=O)cc1" < 5.00

---

Biological target: Cannabinoid receptor 2 (Homo sapiens)
Sequence (P34972 whole entry): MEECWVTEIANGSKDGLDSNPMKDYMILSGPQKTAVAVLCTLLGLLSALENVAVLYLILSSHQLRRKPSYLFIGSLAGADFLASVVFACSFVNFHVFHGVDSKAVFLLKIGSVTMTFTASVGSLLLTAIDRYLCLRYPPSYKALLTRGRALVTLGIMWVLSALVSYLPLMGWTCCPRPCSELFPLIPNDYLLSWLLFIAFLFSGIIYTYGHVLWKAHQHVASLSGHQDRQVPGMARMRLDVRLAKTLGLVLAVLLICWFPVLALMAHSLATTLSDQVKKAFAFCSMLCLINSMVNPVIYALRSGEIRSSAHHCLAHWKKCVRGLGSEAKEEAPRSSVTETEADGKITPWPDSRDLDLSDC
Assay: Safety47 Scan (DiscoverX - Eurofins)
test_readout: EC50

Give me measured EC50, please, for this molecule: "CC(C)(O)c1ccc(N2Cc3c(ccnc3-c3ccc(F)cc3OCC(F)(F)F)C2=O)cc1" > 10 µM

---

Target: Delta-type opioid receptor (Homo sapiens)
Sequence (P41143 whole entry): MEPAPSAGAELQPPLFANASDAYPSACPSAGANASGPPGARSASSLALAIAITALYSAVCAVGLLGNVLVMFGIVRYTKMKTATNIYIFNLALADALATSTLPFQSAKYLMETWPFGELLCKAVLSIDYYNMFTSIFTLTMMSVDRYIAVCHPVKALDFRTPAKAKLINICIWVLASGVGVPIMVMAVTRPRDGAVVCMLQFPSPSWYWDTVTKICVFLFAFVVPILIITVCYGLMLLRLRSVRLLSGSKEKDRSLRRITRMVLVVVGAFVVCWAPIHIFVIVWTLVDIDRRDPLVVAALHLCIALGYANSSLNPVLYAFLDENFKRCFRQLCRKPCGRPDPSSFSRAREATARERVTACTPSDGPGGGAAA
Test: Safety47 Scan (DiscoverX - Eurofins)
test_readout: IC50

Give me measured IC50, please, for this compound: "CC(C)(O)c1ccc(N2Cc3c(ccnc3-c3ccc(F)cc3OCC(F)(F)F)C2=O)cc1" > 10 µM
